- System: Danio rerio larvae (5 dpf)
- protocol.details: difference in activity during first hour vs DMSO (percentage points); higher = more activity than DMSO
- reported.conditions: 10 µM; exposure time 6 h
Tick yes (1) if difference in activity during first hour is -3 or greater. Tick no (0) if difference in activity during first hour is less than -3.

Worked examples, 2 compounds total:
compound | class.name
Cn1c(=O)c2nc[nH]c2n(C)c1=O | yes (1)
Nc1nc(=S)c2[nH]cnc2[nH]1 | yes (1)

In: Decide: difference in activity during first hour of C[C@H]1C[C@H]2[C@@H]3CCC4=CC(=O)C=C[C@]4(C)[C@@]3(F)[C@@H](O)C[C@]2(C)[C@@]1(O)C(=O)CO >= -3?
Out: no (0)
